IFNy Concentration pg/ml, Day 9, IS by entry:
molecular target: canine CD3 on canine T cells (canine PBMC) (canine, UniProt P27597 22-202); assay: cell-based or functional assay
Sequence (P27597 22-202 limits assumed, chain 1 of 3): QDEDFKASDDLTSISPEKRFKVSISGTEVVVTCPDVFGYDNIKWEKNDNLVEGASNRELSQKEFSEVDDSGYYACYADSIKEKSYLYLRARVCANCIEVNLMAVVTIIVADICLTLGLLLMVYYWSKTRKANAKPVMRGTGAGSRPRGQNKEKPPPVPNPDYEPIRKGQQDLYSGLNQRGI
Sequence (chain, as listed by the source limits assumed, chain 2 of 3): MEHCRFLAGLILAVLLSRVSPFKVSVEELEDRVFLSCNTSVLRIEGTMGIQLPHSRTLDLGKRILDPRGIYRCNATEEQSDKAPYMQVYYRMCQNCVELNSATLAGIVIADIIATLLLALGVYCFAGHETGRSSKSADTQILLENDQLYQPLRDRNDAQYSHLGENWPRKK
Sequence (chain, as listed by the source limits assumed, chain 3 of 3): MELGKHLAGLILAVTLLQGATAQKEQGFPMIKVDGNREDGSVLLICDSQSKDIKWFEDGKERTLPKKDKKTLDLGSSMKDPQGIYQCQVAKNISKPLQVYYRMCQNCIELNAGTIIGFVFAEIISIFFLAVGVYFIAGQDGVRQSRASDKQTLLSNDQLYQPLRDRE
Use pg/mL as the unit, but write only the number.

# binder, IFNy Concentration pg/ml, Day 9, IS [pg/mL]
measured = [
    ("PMX184 (monospecific anti-canine CD3, canine IgG-B effector function deficient Fc) (antibody, V domains shown) VH: ELTLQESGPGLVKPSQTLSLTCGVSGGSVTRSHYWNWVRQRPGRGLEWMGYWTGSTNYNPAFQGRISITADTAKNQFSLQLRSMTTEDTAVYFCARETTIPTFFFDYWGQGTLVTVSS VL: SYVLTQLPSKNVTLKQPAHITCGGDNIGSKSVHWYQQKLGQAPVLIIYYDSSRPTGIPERFSGANSGNTATLTISGALAEDEADYYCQVWDSGAKAWVFGEGTQLTVL", 322),
]

Could you tell me which IFNy Concentration pg/ml, Day 9, IS is on file for PMX178 (monospecific anti-canine CD3, canine IgG-B effector function deficient Fc) (antibody, V domains shown) VH: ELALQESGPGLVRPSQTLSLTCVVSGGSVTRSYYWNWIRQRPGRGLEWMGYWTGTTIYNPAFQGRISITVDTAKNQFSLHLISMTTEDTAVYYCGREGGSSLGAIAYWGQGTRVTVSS VL: SYVLTQLPSKNVTLKQPAHITCGGDNIGRKSVHWYQQKLGQAPVLIIYYDSSRPTGIPERFSGANSGNTATLTISGALAEDEADYYCQVWDSSAKAAVFGGGTHLTVL ?
223
